Data credit: patent US8680012B2

System: Alopecurus myosuroides (ALOMY)
Assay: Example B post-emergence herbicidal activity, glasshouse pot test
Format: in vivo
Details: 312 h, rate 250 g/ha, evaluated after 13 days, read-out: Post-emergence activity ALOMY (100=total damage to plant; 0=no damage to plant)
Reported property: pest or weed control at 250 g/ha (%)
Reply numerically in %, unit not repeated.

Query block: # query: pest or weed control at 250 g/ha of entry CCOc1ccc(-c2ccc(Cl)cc2Cl)cc1C1=C(O)C(C)(C)OC(C)(C)C1=O
Result block: 10

Query block: Then what about the compound CCc1ccc(-c2cnc(Cl)cc2C)cc1C1=C(O)C(C)(C)OC(C)(C)C1=O ?
Result block: 20

Query block: Same read-out for Cc1cc(C)c(-c2ccc(Cl)cc2F)c(C)c1C1=C(O)C(C)(C)OC(C)(C)C1=O ?
Result block: 20

Query block: What do we get for Cc1ccc(-c2ccc(Cl)c(F)c2)cc1C1=C(O)C(C)(C)SC(C)(C)C1=O (single isomer, unassigned) ?
Result block: 50

Query block: # iterate: CCc1ccc(-c2ccc(Cl)cc2)cc1C1=C(O)C(C)(C)OC(C)(C)C1=O
Result block: 90

Query block: Moving on to the next compound: CCc1ccc(-c2ccc(C(F)F)cc2)cc1C1=C(O)C(C)(C)OC(C)(C)C1=O
Result block: 100

Query block: One more compound: CCc1ccc(-c2ccc(Cl)cc2OC)cc1C1=C(O)C(C)(C)OC(C)(C)C1=O
Result block: 20

Query block: Also CCc1ccc(-c2ccc(Cl)cc2)cc1C1=C(O)[C@@]2(C)CC[C@](C)(O2)C1=O (single isomer, unassigned) ?
Result block: 80

Query block: Please give the result for CCc1ccc(-c2cc(Cl)c(Cl)cc2Cl)cc1C1=C(O)C(C)(C)OC(C)(C)C1=O too.
Result block: 100

Query block: Same for CCc1ccc(-c2ccc(Cl)nc2C)cc1C1=C(O)C(C)(C)C(=O)C(C)(C)C1=O
Result block: 20

Query block: Try Cc1ccc(-c2ccc(Cl)cc2Cl)cc1C1=C(O)C(C)(C)S(=O)(=O)C(C)(C)C1=O next.
Result block: 20

###

Tested on: Echinochloa crus-galli (ECHCG)
Assay: Example A pre-emergence herbicidal activity, glasshouse pot test
Type: in vivo
Conditions: 480 h, rate 250 g/ha, evaluated 20 days after spraying, read-out: Pre-emergence activity ECHCG (100=total damage to plant; 0=no damage to plant)
Reported property: pest or weed control at 250 g/ha (%)
Kindly provide the numeric value in % only, without the unit symbol.

Query block: Consider the compound Cc1ccc(-c2ccc(Cl)cc2C)cc1C1=C(O)C(C)(C)OC(C)(C)C1=O [Compound A-51] and give its measured pest or weed control at 250 g/ha.
Result block: 50

Query block: Try CCc1ccc(-c2ccc(Cl)cc2)cc1C1=C(O)C(C)(CC)OC(C)(CC)C1=O (stereo not shown) [Compound A-35] next.
Result block: 100

Query block: # repeat for Cc1ccc(-c2ccc(Cl)cc2)cc1C1=C(O)[C@@]2(C)CC[C@](C)(O2)C1=O [Compound A-40]
Result block: 70

Query block: Note, next up: Cc1ccc(-c2ccc(Cl)c(F)c2)cc1C1=C(O)C(C)(C)OC(C)(C)C1=O [Compound A-47]
Result block: 70

###

System: Alopecurus myosuroides (ALOMY)
Assay: Example B post-emergence herbicidal activity, glasshouse pot test
Type: in vivo
Conditions: 312 h, rate 250 g/ha, evaluated after 13 days, read-out: Post-emergence activity ALOMY (100=total damage to plant; 0=no damage to plant)
Reported property: pest or weed control at 250 g/ha
The reply should consist of the numeric value with the unit placed after it.

Query block: Quick check: pest or weed control at 250 g/ha on Alopecurus myosuroides (ALOMY), item Cc1ccc(-c2cnn(Cc3ccccc3)c2)cc1C1=C(O)C(C)(C)OC(C)(C)C1=O [Compound A-143] ?
Result block: 90%

Query block: Now this one: CCc1ccc(-c2ccc(Cl)c(Cl)c2)cc1C1=C(O)[C@@]2(C)CC[C@H](O2)C1=O (single isomer, unassigned) [Compound A-123]
Result block: 90%

Query block: Let us now turn to CC1(C)OC(C)(C)C(O)=C(c2cc(-c3ccc(Cl)cc3)ccc2Br)C1=O [Compound A-149]
Result block: 90%

Query block: Another compound: CCc1ccc(-c2ccc(Cl)cc2Cl)cc1C1=C(OC(C)=O)C(C)(C)OC(C)(C)C1=O [Compound D-23]
Result block: 0%

Query block: CC1(C)OC(C)(C)C(O)=C(c2cc(-c3ccc(Cl)cc3)ccc2Cl)C1=O [Compound A-142] , same question.
Result block: 100%

Query block: Quick one: CCc1ccc(-c2ccc(Cl)cc2)cc1C1=C(O)[C@@]2(CC)C=C[C@H](O2)C1=O [Compound A-63]
Result block: 90%

Query block: Next record, please: CCOc1ccc(-c2ccc(Cl)cc2)cc1C1=C(O)C(C)(C)OC(C)(C)C1=O [Compound A-89]
Result block: 80%

Query block: What would you report for CCc1ccc(-c2ccc(Cl)cc2Cl)cc1C1=C(OC(=O)COC)C(C)(C)OC(C)(C)C1=O [Compound D-24] ?
Result block: 0%

Query block: Another compound to check: CCc1ccc(-c2ccc(Cl)nc2Cl)cc1C1=C(O)C(C)(C)OC(C)(C)C1=O [Compound A-75]
Result block: 90%
